Known % Rmax, binding to hCD16B-NA2 of a selection of molecules
biological target: CD16B-NA2 (FcgRIIIb-NA2) (Homo sapiens, UniProt O75015); assay: SPR binding to FcgR-his: CD16B-NA2; conditions: 1 μM antibody, anti-his Fab captured FcgR-his
Sequence (O75015 17-200 limits assumed): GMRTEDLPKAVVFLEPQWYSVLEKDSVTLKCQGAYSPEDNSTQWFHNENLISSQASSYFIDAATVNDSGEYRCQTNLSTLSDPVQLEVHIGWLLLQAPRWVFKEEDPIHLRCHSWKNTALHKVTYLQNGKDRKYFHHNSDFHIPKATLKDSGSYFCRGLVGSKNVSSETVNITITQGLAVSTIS
Give a bare numeral; the unit % is implied.

Worked examples follow.
molecule	% Rmax, binding to hCD16B-NA2 [%]
mAb8-IgG2.3G1-AY-V27 (protein, left off: another chain or arm of the molecule) constant: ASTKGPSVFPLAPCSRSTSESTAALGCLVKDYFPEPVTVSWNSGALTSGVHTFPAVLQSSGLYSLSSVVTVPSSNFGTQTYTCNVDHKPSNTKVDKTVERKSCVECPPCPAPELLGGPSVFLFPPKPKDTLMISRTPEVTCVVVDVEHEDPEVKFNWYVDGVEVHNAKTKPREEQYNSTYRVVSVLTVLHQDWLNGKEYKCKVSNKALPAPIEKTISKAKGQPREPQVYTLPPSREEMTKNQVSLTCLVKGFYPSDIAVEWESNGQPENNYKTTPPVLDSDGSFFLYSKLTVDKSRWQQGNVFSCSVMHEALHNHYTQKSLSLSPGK	7
mAb13-IgG2.5 (protein, left off: another chain or arm of the molecule) constant: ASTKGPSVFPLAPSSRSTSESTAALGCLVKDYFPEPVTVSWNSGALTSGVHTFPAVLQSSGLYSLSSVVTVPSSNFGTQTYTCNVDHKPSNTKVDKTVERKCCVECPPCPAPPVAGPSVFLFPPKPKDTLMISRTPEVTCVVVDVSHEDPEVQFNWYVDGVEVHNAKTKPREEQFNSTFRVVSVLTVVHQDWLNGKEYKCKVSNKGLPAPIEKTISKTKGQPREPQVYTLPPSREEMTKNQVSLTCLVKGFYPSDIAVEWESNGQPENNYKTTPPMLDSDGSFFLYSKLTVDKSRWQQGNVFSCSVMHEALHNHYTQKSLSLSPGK	−2
mAb11-IgG2.3 (protein, left off: another chain or arm of the molecule) constant: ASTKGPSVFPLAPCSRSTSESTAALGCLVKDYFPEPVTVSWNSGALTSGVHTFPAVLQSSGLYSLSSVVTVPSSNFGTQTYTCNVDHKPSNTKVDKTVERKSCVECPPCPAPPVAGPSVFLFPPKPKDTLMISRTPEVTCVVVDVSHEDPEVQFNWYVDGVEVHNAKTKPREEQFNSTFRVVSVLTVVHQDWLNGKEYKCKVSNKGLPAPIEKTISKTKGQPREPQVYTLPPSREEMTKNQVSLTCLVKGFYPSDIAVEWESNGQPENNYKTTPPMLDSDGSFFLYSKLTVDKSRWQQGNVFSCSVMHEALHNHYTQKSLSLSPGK	0
mAb7-IgG2.3G1-AY-V27 (protein, left off: another chain or arm of the molecule) constant: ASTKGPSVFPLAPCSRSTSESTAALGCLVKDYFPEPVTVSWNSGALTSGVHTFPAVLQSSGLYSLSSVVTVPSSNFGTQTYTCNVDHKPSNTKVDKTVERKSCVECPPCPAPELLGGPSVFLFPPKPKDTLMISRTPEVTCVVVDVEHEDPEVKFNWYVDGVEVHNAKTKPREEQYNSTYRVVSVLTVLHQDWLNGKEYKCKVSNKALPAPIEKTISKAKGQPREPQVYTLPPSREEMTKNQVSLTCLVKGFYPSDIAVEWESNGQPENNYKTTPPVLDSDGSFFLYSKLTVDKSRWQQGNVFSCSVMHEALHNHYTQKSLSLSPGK	7

(Q) Requested field: % Rmax, binding to hCD16B-NA2. Item: mAb12-IgG2.5 (protein, left off: another chain or arm of the molecule) constant: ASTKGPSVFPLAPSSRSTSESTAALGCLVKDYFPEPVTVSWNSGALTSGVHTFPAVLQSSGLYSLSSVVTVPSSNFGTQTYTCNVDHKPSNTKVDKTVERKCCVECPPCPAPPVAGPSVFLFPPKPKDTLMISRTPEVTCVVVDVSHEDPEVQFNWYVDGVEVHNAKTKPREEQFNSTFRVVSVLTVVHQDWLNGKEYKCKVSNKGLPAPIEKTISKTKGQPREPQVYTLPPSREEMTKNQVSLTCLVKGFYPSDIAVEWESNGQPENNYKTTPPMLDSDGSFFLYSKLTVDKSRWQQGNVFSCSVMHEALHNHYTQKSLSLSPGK
(A) 0
